- Tested on: SK-BR-3
- Measurement description: Antiproliferative activity against human SK-BR-3 cells incubated for 72 hrs by CCK8 assay
- Format: functional, cell-based
- Condition set: SK-BR-3, 72 h
Parameter: IC50 (µM)

1) COc1cc(Nc2c(C#N)cnc3cc(OCCCN4CCC5(CC4)CCN(CCC46C[C@H]7C[C@@H](C4)C[C@@H](C6)C7)CC5)c(OC)cc23)c(Cl)cc1Cl 0.53
2) COc1cc(Nc2c(C#N)cnc3cc(OCCCN4CCN(C)CC4)c(OC)cc23)c(Cl)cc1Cl 5.14
